pIC50: −log10 of the molar value.
As a worked illustration, we turn to pIC50 data collected for JAK1 (Homo sapiens).

Sample answers from the record:
| Compound | Value Observed |
| --- | --- |
| Cn1cc(-c2cc3nccn3c(-c3ccn(C4(CCF)CN(S(=O)(=O)C(F)(F)F)C4)c3)n2)cn1 [Example 26] | 7.00 to 8.00 |
| Cn1cc(-c2cc3nccn3c(-c3cnn(C(CCO)C4CC4)c3)n2)cn1 (centres unmarked) [Example 13] | < 6.00 |
| Cn1cc(-c2cc3nccn3c(-c3cnn(C4(C)CN(S(=O)(=O)C(F)(F)F)C4)c3)n2)cn1 [Example 16] | 6.00 to 7.00 |
| CCOCCC(C1CCC1)n1cc(-c2nc(-c3cnn(C)c3)cc3nccn23)cn1 (centres unmarked) [Example 67] | < 6.00 |
| Cn1cc(-c2cc3nccn3c(-c3cnn(C(CCO)C4CCCC4)c3)n2)cn1 (centres unmarked) [Example 72] | < 6.00 |

For every record below, what is its pIC50?
1. CC=C[C@@H](C1CC1)n1cc(-c2nc(-c3cnn(C)c3)cc3nccn23)cn1 [Example 39]
2. Cn1cc(-c2cc3nccn3c(-c3cnn(C4(CC=C(F)F)CN(S(=O)(=O)C(F)(F)F)C4)c3)n2)cn1 [Example 32]
3. CCC(CCF)n1cc(-c2nc(-c3cnn(C)c3)cc3nccn23)cn1 (centres unmarked) [Example 57]
4. CC=CCC1(n2cc(-c3nc(-c4cnn(C)c4)cc4nccn34)cn2)CN(S(=O)(=O)C(F)(F)F)C1 [Example 90]
5. CCN1CC(CCF)(n2cc(-c3nc(-c4cnn(C)c4)cc4nccn34)cn2)C1 [Example 84]
6. Cn1cc(-c2cc3nccn3c(-c3cnn(C(CCC(F)F)C4CC4)c3)n2)cn1 (centres unmarked) [Example 47]
7. CCNC(=O)N1CC(CCF)(n2cc(-c3nc(-c4cnn(C)c4)cc4nccn34)cn2)C1 [Example 92]

["6.00 to 7.00", "> 8.00", "6.00 to 7.00", "7.00 to 8.00", "< 6.00", "6.00 to 7.00", "< 6.00"]

For every record below, what is its pIC50?
1. Cn1cc(-c2cc3nccn3c(-c3cnn(C(CO)C4CC4)c3)n2)cn1 (centres unmarked) [Example 6]
2. Cn1cc(-c2cc3nccn3c(-c3cnn(C(C/C=C\F)C4CC4)c3)n2)cn1 (centres unmarked) [Example 44]
3. Cn1cc(-c2cc3nccn3c(-c3cnn([C@H](CCF)C4CCC4)c3)n2)cn1 [Example 36]
4. CSCCC(C1CC1)n1cc(-c2nc(-c3cnn(C)c3)cc3nccn23)cn1 (centres unmarked) [Example 62]
5. CC[C@H](CCF)n1cc(-c2nc(-c3cnn(C)c3)cc3nccn23)cn1 [Example 42]

1: < 6.00; 2: 6.00 to 7.00; 3: 6.00 to 7.00; 4: 6.00 to 7.00; 5: 6.00 to 7.00

* * *

As a worked illustration, we turn to IC50 data collected for JAK1 (Homo sapiens, UniProt P23458).

| Compound | Measured Target | IC50 |
| --- | --- | --- |
| Cn1cc(-c2cc3nccn3c(-c3cnn(C(CCO)C4CCC4)c3)n2)cn1 (centres unmarked) [Example 68] | JAK1 (Homo sapiens, UniProt P23458) | > 1000 nM |
| CCOC(=O)CC1(n2cc(-c3nc(-c4cnn(C)c4)cc4nccn34)cn2)CN(S(=O)(=O)C(F)(F)F)C1 [Example 1] | JAK1 (Homo sapiens, UniProt P23458) | > 1000 nM |
| COCCC1(n2cc(-c3nc(-c4cnn(C)c4)cc4nccn34)cn2)CN(C(=O)N(C)C)C1 [Example 99] | JAK1 (Homo sapiens, UniProt P23458) | > 1000 nM |

For every record below, what is its IC50?
1. CC#CCCn1cc(-c2nc(-c3cnn(C)c3)cc3nccn23)cn1 [Example 7]
2. Cn1cc(-c2cc3nccn3c(-c3cnn(C(CCF)C4CC4)c3)n2)cn1 (centres unmarked) [Example 17]

["> 1000 nM", "100 to 1000 nM"]
